Each recorded value in this set is attributed to paper PMC7756582.

Test system: HIV-1(IIIB)
Test: Anti-HIV activity assay, HIV-1-infected wild-type CEM/0 cell cultures
Assay type: cell-based
Conditions: Human immunodeficiency virus 1, IIIB, CCRF-CEM, read-out: EC50 CEM/0 HIV-1
Listing of entries alongside the reported EC50.
// return numeric value only (unit: nM, not printed)

Consider the reported EC50 for these compounds:
CCCCCCCCCCCCCCCCCCOP(=O)(O)OP(=O)(O)OP(=O)(O)OCC1C=CC(n2cc(C)c(=O)[nH]c2=O)O1 (stereo not shown) [7 z, γ‐C18‐d4TTP] ... 110
CCCCOP(=O)(O)OP(=O)(O)OP(=O)(O)OCC1C=CC(n2cc(C)c(=O)[nH]c2=O)O1 (stereo not shown) [7 w, γ‐C4‐d4TTP] ... 950
Cc1cn(C2C=CC(COP(=O)(O)OP(=O)(O)OP(=O)(O)O)O2)c(=O)[nH]c1=O (stereo not shown) [2 t, d4TTP, reference compound] ... 1050

Turning to the following compound.
Could you share what EC50 was measured for CCCCCCCCCCCOP(=O)(O)OP(=O)(O)OP(=O)(O)OCC1C=CC(n2cc(C)c(=O)[nH]c2=O)O1 (stereo not shown) [7 x, γ‐C11‐d4TTP] , tested on HIV-1(IIIB)?
890

###

Listing of entries alongside the reported EC50.
Test system: HIV-2(ROD)
Assay: Anti-HIV activity assay, HIV-2-infected thymidine-kinase-deficient CEM/TK- cell cultures
Assay type: cell-based
Conditions: Human immunodeficiency virus 2; thymidine-kinase-deficient CEM/TK− cells, HIV-2; mean±SD, n=2-3; read-out: EC50 CEM/TK− HIV-2
Procedure: γ‐(AB,alkyl)‐d4TTP prodrugs 6 and the γ‐alkyl‐d4TTPs 7 were evaluated for their ability to inhibit the replication of HIV in HIV‐1‐ or HIV‐2‐infected wild‐type CEM/0 as well as mutant thymidine‐kinase‐deficient CEM cell cultures (CEM/TK^−). For comparison, two TriPPPro derivatives 5 were also included in this assay. […] The result was visualized by fluorescence imaging. […]
// return numeric value only (unit: nM, not printed)

Consider the reported EC50 for these molecules:
CCCCCCCCCCCCCCCOP(=O)(OCc1ccc(OC(=O)CCCCCC)cc1)OP(=O)(O)OP(=O)(O)OCC1C=CC(n2cc(C)c(=O)[nH]c2=O)O1 (centres unmarked) [6 dy] ... 920
CCCCCCCCCCCCCCCCCCOP(=O)(OCc1ccc(OC(C)=O)cc1)OP(=O)(O)OP(=O)(O)OCC1C=CC(n2cc(C)c(=O)[nH]c2=O)O1 (centres unmarked) [6 az] ... 390

Give its EC50 value. Item: CCCCCCCCCCCCCCCCCC(=O)Oc1ccc(COP(=O)(OCc2ccc(OC(=O)CCCC)cc2)OP(=O)(O)OP(=O)(O)OCC2C=CC(n3cc(C)c(=O)[nH]c3=O)O2)cc1 (centres unmarked) [5 b, reference compound]
540

What about CCCCCCCCCCCCCCCCCCOP(=O)(OCc1ccc(OC(=O)CCCC)cc1)OP(=O)(O)OP(=O)(O)OCC1C=CC(n2cc(C)c(=O)[nH]c2=O)O1 (centres unmarked) [6 cz, γ‐(AB‐C4,alkyl‐C18)‐d4TTP] ?
170

###

Tested on: HIV-2(ROD)
Assay: Anti-HIV activity assay, HIV-2-infected wild-type CEM/0 cell cultures
Assay type: cell-based
Conditions: Human immunodeficiency virus 2, CCRF-CEM, read-out: EC50 CEM/0 HIV-2
measured quantity: EC50 (nM)
// return numeric value only (unit: nM, not printed)

Cc1cn([C@H]2C=C[C@@H](CO)O2)c(=O)[nH]c1=O [Compound 1, 3′‐deoxy‐2′,3′‐didehydrothymidine, reference compound] ... 220
CCCCOP(=O)(O)OP(=O)(O)OP(=O)(O)OCC1C=CC(n2cc(C)c(=O)[nH]c2=O)O1 (stereo not drawn) ... 290

Turning to the following molecule.
Could you share what EC50 was measured for CCCCCCCCCCCCCCCCCCOP(=O)(OCc1ccc(OC(=O)CC)cc1)OP(=O)(O)OP(=O)(O)OCC1C=CC(n2cc(C)c(=O)[nH]c2=O)O1 (stereo not drawn) , tested on HIV-2(ROD)?
250
